# credit: patent US6410255B1

# Target of assay: PTP-B
# Test protocol: Inhibition of protein tyrosine phosphatase with phosphorylated Src-2 probe
# Measurement parameters: read-out: apparent IC50
Quantity measured: IC50
Please state the number and follow it with the unit.

Problem: Which measured IC50 value corresponds to [O]=[V]([OH])([OH])[OH] [Ortho-vanadate, orthovanadate] ?
Result: 420 nM
